Source: ChEMBL document CHEMBL5550194

Molecular target: Cytochrome P450 7A1 (Homo sapiens)
Sequence (P22680 whole entry): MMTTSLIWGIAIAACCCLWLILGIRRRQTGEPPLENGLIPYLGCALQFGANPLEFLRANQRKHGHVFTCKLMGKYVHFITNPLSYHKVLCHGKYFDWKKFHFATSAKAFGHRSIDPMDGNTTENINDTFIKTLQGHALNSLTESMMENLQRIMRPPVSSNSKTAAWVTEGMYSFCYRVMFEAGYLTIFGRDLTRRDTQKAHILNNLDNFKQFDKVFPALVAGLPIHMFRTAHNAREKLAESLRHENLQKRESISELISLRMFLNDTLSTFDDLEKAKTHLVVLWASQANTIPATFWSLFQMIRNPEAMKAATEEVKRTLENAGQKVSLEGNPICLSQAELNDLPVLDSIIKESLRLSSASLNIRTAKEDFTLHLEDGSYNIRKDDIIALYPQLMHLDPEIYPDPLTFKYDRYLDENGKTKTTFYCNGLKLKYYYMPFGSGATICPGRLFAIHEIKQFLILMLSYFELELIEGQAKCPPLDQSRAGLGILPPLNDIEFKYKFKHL
Experiment: Binding affinity to recombinant human CYP7A1 assessed as substrate-type binding by measuring dissociation constant by spectrophotometric titration method
Format: ADME
quantity kind: Kd (nM)
Expressed in nM, but write only the number.

In one line, give reported Kd of the entry CC(C)(C)NP(=O)(NC(C)(C)C)c1nncc2c1CC1CC[C@H]3[C@@H]4CC[C@H](O)[C@@]4(C)CC[C@@H]3[C@@]1(C)C2 (stereo partly specified) .
2100

----------
Provide the reported IC50 of each item.
Tested on: MDA-MB-231
Experiment: Antiproliferative activity against human MDA-MB-231 cells assessed as inhibition of cell growth incubated for 72 hrs by MTT assay
Assay type: functional, cell-based
Settings: MDA-MB-231, 72 h
Expressed in µM, but write only the number.

Check MDA-MB-231 data and give IC50 for C[C@]12CC[C@H](O)CC1=CC[C@@H]1[C@@H]2CC[C@]2(C)c3c(cnnc3P(=O)(c3ccccc3)c3ccccc3)C[C@@H]12 .
7.4

Check MDA-MB-231 data and give IC50 for C[C@]12CC[C@H]3[C@@H](CCC4Cc5c(cnnc5P(=O)(c5ccccc5)c5ccccc5)C[C@@]43C)[C@@H]1CC[C@@H]2O (stereo partly specified) .
8.9

Check MDA-MB-231 data and give IC50 for C[C@]12CCC(=O)C=C1CC[C@@H]1[C@@H]2CC[C@]2(C)c3c(cnnc3P(=O)(c3ccccc3)c3ccccc3)C[C@@H]12 .
18.1

Check MDA-MB-231 data and give IC50 for COc1ccc2c(c1)CC[C@@H]1[C@@H]2CC[C@]2(C)c3c(cnnc3P(=O)(c3ccccc3)c3ccccc3)C[C@@H]12 .
13.5
